- assay-system: Human OGA (recombinant hOGA protein) (Homo sapiens (Human), UniProt O60502)
- Sequence (O60502 whole entry): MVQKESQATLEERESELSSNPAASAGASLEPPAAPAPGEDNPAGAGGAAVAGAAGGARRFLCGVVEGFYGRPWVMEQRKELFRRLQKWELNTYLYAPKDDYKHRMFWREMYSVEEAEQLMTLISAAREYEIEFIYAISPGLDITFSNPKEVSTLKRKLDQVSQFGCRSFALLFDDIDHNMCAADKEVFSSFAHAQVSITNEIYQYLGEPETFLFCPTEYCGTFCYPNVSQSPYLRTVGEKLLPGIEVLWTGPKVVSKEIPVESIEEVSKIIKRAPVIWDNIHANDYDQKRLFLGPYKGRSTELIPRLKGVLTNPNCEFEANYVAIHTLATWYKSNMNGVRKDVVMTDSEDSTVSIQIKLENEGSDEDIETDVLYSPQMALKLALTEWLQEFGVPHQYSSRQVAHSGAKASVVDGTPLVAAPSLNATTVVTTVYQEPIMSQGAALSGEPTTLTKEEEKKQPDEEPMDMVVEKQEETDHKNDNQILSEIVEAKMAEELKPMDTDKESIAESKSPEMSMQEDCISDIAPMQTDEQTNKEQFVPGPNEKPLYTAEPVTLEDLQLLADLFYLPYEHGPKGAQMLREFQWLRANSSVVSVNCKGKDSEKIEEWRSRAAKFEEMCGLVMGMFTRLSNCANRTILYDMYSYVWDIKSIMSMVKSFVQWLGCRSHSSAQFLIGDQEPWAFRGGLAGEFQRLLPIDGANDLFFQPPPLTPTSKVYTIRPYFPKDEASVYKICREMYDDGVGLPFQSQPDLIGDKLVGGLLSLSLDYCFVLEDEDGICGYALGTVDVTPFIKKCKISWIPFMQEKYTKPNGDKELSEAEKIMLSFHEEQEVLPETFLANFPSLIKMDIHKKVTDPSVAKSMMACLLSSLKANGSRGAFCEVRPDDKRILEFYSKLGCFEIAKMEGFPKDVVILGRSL
- assay-name: Human OGA enzyme activity assay (fluorescence, 4-Methylumbelliferyl N-acetyl-β-D-glucosaminide substrate)
- Type: biochemical
- measurement-context: Table 1, test concentration not given
measure: % of inhibition (%)

{"compound": "CC(=O)Nc1ncc(CN2CCC(C(=O)OC(C)c3ccc4c(c3)OCO4)CC2)s1 (centres unmarked) [Compound B-13]", "measure": "% of inhibition", "numeric-readout": 98.9}
{"compound": "CC(=O)Nc1ncc(CN2CCC(=CC(=O)Nc3ccc(Cl)cc3)CC2)s1 [Compound C-3]", "measure": "% of inhibition", "numeric-readout": 97.3}
{"compound": "CC(=O)Nc1ncc(CN2CCC(C(=O)Nc3ccc(Cl)cc3)CC2)s1 [Compound B-2]", "measure": "% of inhibition", "numeric-readout": 91.0}
{"compound": "CC(=O)Nc1ncc(CN2CCN(CC(=O)Oc3ccccc3)CC2)s1 [Compound A-2]", "measure": "% of inhibition", "numeric-readout": 34.6}
{"compound": "CC(=O)Nc1ncc(CN2CCC(C(=O)NC3CCCCC3)CC2)s1 [Compound B-5]", "measure": "% of inhibition", "numeric-readout": 46.7}

* * *

- assay-system: Human OGA (recombinant hOGA protein) (Homo sapiens (Human), UniProt O60502)
- assay-name: Human OGA enzyme activity assay (fluorescence, 4-Methylumbelliferyl N-acetyl-β-D-glucosaminide substrate)
- Format: biochemical
- measurement-context: Table 1, test concentration not given
Category scheme (% of inhibition): c1: < 80%; c2: ≥ 80% and < 90%; c3: ≥ 90%

{"compound": "CC(=O)Nc1ncc(CN2CCC(C(=O)NC(C)c3ccc4c(c3)OCO4)CC2)s1 (stereo not drawn)", "answer-label": "c3"}
{"compound": "CC(=O)Nc1ncc(CN2CCN(CC(=O)Nc3cccc(C)n3)CC2)s1", "answer-label": "c1"}
{"compound": "CC(=O)Nc1ncc(CN2CCN(CC(=O)Nc3ccccc3C)CC2)s1", "answer-label": "c1"}
{"compound": "CC(=O)Nc1ncc(CN2CCN(CC(=O)Nc3cccc4ccccc34)CC2)s1", "answer-label": "c1"}
{"compound": "CC(=O)Nc1ncc(CN2CCC(=CC(=O)NC3CCCCC3)CC2)s1", "answer-label": "c3"}
{"compound": "COc1ccc(CNC(=O)C2CCN(Cc3cnc(NC(C)=O)s3)CC2)cc1", "answer-label": "c3"}
{"compound": "CC(=O)Nc1ncc(CN2CCN(CC(=O)Nc3ccc4nccnc4c3)CC2)s1", "answer-label": "c1"}
{"compound": "CC(=O)Nc1ncc(CN2CCC(=CC(=O)Nc3ccccc3)CC2)s1", "answer-label": "c3"}
{"compound": "CC(=O)Nc1ncc(CN2CCC(=CC(=O)Nc3ccc(C(C)C)cc3)CC2)s1", "answer-label": "c3"}
{"compound": "COc1ccc(NC(=O)C=C2CCN(Cc3cnc(NC(C)=O)s3)CC2)cc1", "answer-label": "c3"}
{"compound": "COc1ccc(CCNC(=O)CN2CCN(Cc3cnc(NC(C)=O)s3)CC2)cc1", "answer-label": "c2"}
{"compound": "CC(=O)Nc1ncc(CN2CCCC(C(=O)Nc3ccc(F)cc3)C2)s1 (stereo not drawn)", "answer-label": "c3"}
{"compound": "COc1ccc(NC(=O)CN2CCN(Cc3cnc(NC(C)=O)s3)CC2)cc1", "answer-label": "c2"}
{"compound": "CC(=O)Nc1ncc(CN2CCN(CC(=O)Nc3ccc(C)cc3)CC2)s1", "answer-label": "c1"}
{"compound": "CC(=O)Nc1ncc(CN2CCN(CC(=O)Nc3ccc(F)cc3)CC2)s1", "answer-label": "c2"}

* * *

- assay-system: Human OGA (recombinant hOGA protein) (Homo sapiens (Human))
- assay-name: Human OGA enzyme activity assay (fluorescence, 4-Methylumbelliferyl N-acetyl-β-D-glucosaminide substrate)
- Assay type: biochemical
- measurement-context: Table 1, test concentration not given
Readings of % of inhibition for the listed molecules

{"molecule": "CC(=O)Nc1ncc(CN2CCCC(C(=O)NC3CCCCC3)C2)s1 (stereo not drawn)", "% of inhibition [%]": 97.6}
{"molecule": "CC(=O)Nc1ncc(CN2CCN(CC(=O)Nc3ccc(C)cn3)CC2)s1", "% of inhibition [%]": 64.3}
{"molecule": "CC(=O)Nc1ncc(CN2CCN(CC(=O)Nc3ccc(Cl)cc3)CC2)s1", "% of inhibition [%]": 81.6}
{"molecule": "CC(=O)Nc1ncc(CN2CCC(C(=O)NC(C)c3ccccc3)CC2)s1 (stereo not drawn)", "% of inhibition [%]": 93.3}
{"molecule": "CC(=O)Nc1ncc(CN2CCCC(C(=O)Nc3ccccc3)C2)s1 (stereo not drawn)", "% of inhibition [%]": 95.5}
{"molecule": "CC(=O)Nc1ncc(CN2CCN(CC(=O)NC3CCCCC3)CC2C)s1 (stereo not drawn)", "% of inhibition [%]": 98.4}
{"molecule": "CC(=O)Nc1ncc(CN2CCCC(C(=O)Nc3ccc(C(C)C)cc3)C2)s1 (stereo not drawn)", "% of inhibition [%]": 96.4}
{"molecule": "CC(=O)Nc1ncc(CN2CCN(CC(=O)NCc3ccc(-c4ccccc4)cc3)CC2)s1", "% of inhibition [%]": 97.7}
{"molecule": "CC(=O)Nc1ncc(CN2CCC(=CC(=O)Nc3ccc(F)cc3)CC2)s1", "% of inhibition [%]": 97.1}
{"molecule": "CC(=O)Nc1ncc(CN2CCN(CC(=O)Nc3ccc(Cc4ccccc4)cc3)CC2C)s1 (stereo not drawn)", "% of inhibition [%]": 98.8}
{"molecule": "CC(=O)Nc1ncc(CN2CCC(C(=O)NC(C)c3ccc(C)cc3)CC2)s1 (stereo not drawn)", "% of inhibition [%]": 93.3}
{"molecule": "CC(=O)Nc1ncc(CN2CCN(CC(=O)Nc3ccc4[nH]ccc4c3)CC2)s1", "% of inhibition [%]": 59.2}
{"molecule": "CC(=O)Nc1ncc(CN2CCN(CC(=O)Nc3nc4ccccc4s3)CC2)s1", "% of inhibition [%]": 46.2}
{"molecule": "CC(=O)Nc1ncc(CN2CCN(CC(=O)Nc3cccc(C)c3)CC2)s1", "% of inhibition [%]": 62.4}
{"molecule": "CC(=O)Nc1ccc(NC(=O)CN2CCN(Cc3cnc(NC(C)=O)s3)CC2)cc1", "% of inhibition [%]": 80.0}
{"molecule": "CC(=O)Nc1ncc(CN2CCN(CC(=O)Nc3ccc(F)cc3)CC2C)s1 (stereo not drawn)", "% of inhibition [%]": 97.9}
{"molecule": "CC(=O)Nc1ncc(CN2CCC(C(=O)Nc3ccccc3)CC2)s1", "% of inhibition [%]": 87.0}
{"molecule": "CC(=O)Nc1ncc(CN2CCN(CC(=O)Nc3ccc(Cc4ccccc4)cc3)CC2)s1", "% of inhibition [%]": 90.8}

* * *

{"compound": "CC(=O)Nc1ncc(CN2CCN(CC(=O)Oc3ccccc3)CC2)s1 [Compound A-2]", "melting point": "185 to 194 °C"}
{"compound": "CC(=O)Nc1ncc(CN2CCN(CC(=O)Nc3nc4ccccc4s3)CC2)s1 [Compound A-27]", "melting point": "248 to 249 °C"}
{"compound": "CC(=O)Nc1ncc(CN2CCN(CC(=O)Nc3ccc(Cc4ccccc4)cc3)CC2)s1 [Compound A-38]", "melting point": "132 to 134 °C"}
{"compound": "COc1ccc(NC(=O)CN2CCN(Cc3cnc(NC(C)=O)s3)CC2)cc1OC [Compound A-10]", "melting point": "182 to 184 °C"}
{"compound": "COc1ccc(CCNC(=O)CN2CCN(Cc3cnc(NC(C)=O)s3)CC2)cc1 [Compound A-8]", "melting point": "177 to 179 °C"}
{"compound": "CC(=O)Nc1ncc(CN2CCN(CC(=O)Nc3ccccc3)CC2C)s1 (centres unmarked) [Compound A-32]", "melting point": "174 to 176 °C"}
{"compound": "CC(=O)Nc1ncc(CN2CCC(=CC(=O)Nc3ccc(C(C)C)cc3)CC2)s1 [Compound C-4]", "melting point": "232 to 236 °C"}
{"compound": "CC(=O)Nc1ncc(CN2CCN(CC(=O)Nc3cccc(C)c3)CC2)s1 [Compound A-5]", "melting point": "202 to 204 °C"}

* * *

- assay-system: Human OGA (recombinant hOGA protein) (Homo sapiens (Human), UniProt O60502)
- assay-name: Human OGA enzyme activity assay (fluorescence, 4-Methylumbelliferyl N-acetyl-β-D-glucosaminide substrate)
- Type: biochemical
- measurement-context: Table 1
Readings of IC50 for the listed compounds

{"compound": "CC(=O)Nc1ncc(CN2CCC(C(=O)NC(C)c3ccc(C)cc3)CC2)s1 (stereo not drawn)", "IC50 (nM)": 830}
{"compound": "CC(=O)Nc1ncc(CN2CCN(CC(=O)Nc3ccc(Cl)cc3Br)CC2)s1", "IC50 (nM)": 1700}
{"compound": "CC(=O)Nc1ncc(CN2CCCC(C(=O)Nc3ccc(C(C)C)cc3)C2)s1 (stereo not drawn)", "IC50 (nM)": 240}
{"compound": "CC(=O)Nc1ncc(CN2CCC(C(=O)Nc3ccc4ncccc4c3)CC2)s1", "IC50 (nM)": 320}
{"compound": "CC(=O)Nc1ncc(CN2CCN(CC(=O)Nc3ccc4ncccc4c3)CC2)s1", "IC50 (nM)": 900}
{"compound": "COc1ccc(NC(=O)C=C2CCN(Cc3cnc(NC(C)=O)s3)CC2)cc1OC", "IC50 (nM)": 350}
{"compound": "CC(=O)Nc1ncc(CN2CCC(C(=O)Nc3ccc(C(C)C)cc3)CC2)s1", "IC50 (nM)": 680}
{"compound": "CC(=O)Nc1ncc(CN2CCC(=CC(=O)Nc3ccc(F)cc3)CC2)s1", "IC50 (nM)": 170}
{"compound": "CC(=O)Nc1ncc(CN2CCN(CC(=O)NCc3ccc(-c4ccccc4)cc3)CC2)s1", "IC50 (nM)": 210}
{"compound": "COc1ccc(CNC(=O)C=C2CCN(Cc3cnc(NC(C)=O)s3)CC2)cc1", "IC50 (nM)": 80}
{"compound": "CC(=O)Nc1ncc(CN2CCN(CC(=O)Nc3ccccc3)CC2C)s1 (stereo not drawn)", "IC50 (nM)": 240}
{"compound": "CC(=O)Nc1ncc(CN2CCC(C(=O)OC(C)c3ccc4c(c3)OCO4)CC2)s1 (stereo not drawn)", "IC50 (nM)": 60}
{"compound": "CC(=O)Nc1ncc(CN2CCC(C(=O)NC(C)c3ccc4ccccc4c3)CC2)s1 (stereo not drawn)", "IC50 (nM)": 250}
{"compound": "CC(=O)Nc1ncc(CN2CCCC(C(=O)NC3CCCCC3)C2)s1 (stereo not drawn)", "IC50 (nM)": 450}
{"compound": "COc1ccc(CNC(=O)C2CCN(Cc3cnc(NC(C)=O)s3)CC2)cc1", "IC50 (nM)": 860}
{"compound": "CC(=O)Nc1ncc(CN2CCN(CC(=O)NC3CCCCC3)CC2C)s1 (stereo not drawn)", "IC50 (nM)": 100}
{"compound": "CC(=O)Nc1ncc(CN2CCC(C(=O)Nc3ccc(Cl)cc3)CC2)s1", "IC50 (nM)": 270}
{"compound": "COc1ccc(NC(=O)CN2CCN(Cc3cnc(NC(C)=O)s3)CC2)cc1", "IC50 (nM)": 840}
{"compound": "CC(=O)Nc1ncc(CN2CCC(=CC(=O)Nc3ccc(C(C)C)cc3)CC2)s1", "IC50 (nM)": 230}
{"compound": "CC(=O)Nc1ncc(CN2CCN(CC(=O)NCc3ccc(-c4ccccc4)cc3)CC2C)s1 (stereo not drawn)", "IC50 (nM)": 30}
{"compound": "CC(=O)Nc1ncc(CN2CCC(C(=O)NC(C)c3ccccc3)CC2)s1 (stereo not drawn)", "IC50 (nM)": 900}
{"compound": "COc1ccc(CCNC(=O)CN2CCN(Cc3cnc(NC(C)=O)s3)CC2)cc1", "IC50 (nM)": 630}
{"compound": "CC(=O)Nc1ncc(CN2CCC(C(=O)Nc3ccccc3)CC2)s1", "IC50 (nM)": 870}
{"compound": "CC(=O)Nc1ncc(CN2CCN(CC(=O)Nc3ccc(Cl)cc3)CC2)s1", "IC50 (nM)": 1990}
